Measured hAMY3R EC50 (cAMP) of individual entries
Molecular target: T1, hAMY3R (human, UniProt P30988)
T1 sequence 1: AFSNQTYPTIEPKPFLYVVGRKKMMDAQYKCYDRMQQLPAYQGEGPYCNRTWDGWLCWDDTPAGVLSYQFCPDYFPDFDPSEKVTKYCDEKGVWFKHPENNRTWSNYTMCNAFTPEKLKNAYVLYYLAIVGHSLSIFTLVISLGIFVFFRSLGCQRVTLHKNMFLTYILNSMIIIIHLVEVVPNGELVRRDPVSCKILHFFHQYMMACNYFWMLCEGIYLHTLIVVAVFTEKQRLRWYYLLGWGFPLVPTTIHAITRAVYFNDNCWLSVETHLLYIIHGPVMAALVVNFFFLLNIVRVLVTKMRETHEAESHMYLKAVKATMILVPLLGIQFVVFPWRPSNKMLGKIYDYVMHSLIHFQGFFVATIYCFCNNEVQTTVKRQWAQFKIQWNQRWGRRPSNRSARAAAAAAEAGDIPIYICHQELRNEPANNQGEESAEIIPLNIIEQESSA
T1 sequence 2: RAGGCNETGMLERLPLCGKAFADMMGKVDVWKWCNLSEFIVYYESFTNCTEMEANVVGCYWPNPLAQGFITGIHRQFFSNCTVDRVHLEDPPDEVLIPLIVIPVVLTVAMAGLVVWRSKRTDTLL
Test: cell-based or functional assay
Numbered stars: 1 amine (or outer) side, 2 acyl side, 3 side chain; on linkers, the order of the positions; unused ones are H or OH. Bridge positions count the residues as written; N and C are the ends. Square brackets hold non-standard residues; d marks the D form. Ends that are not written are not given here. * marks the point of attachment. C20 diacid = O=C(O)CCCCCCCCCCCCCCCCCCC(=O)*; γGlu = O=C(O)[C@H](CCC(=O)[*:2])N[*:1]; Hyp = O=C(O)[C@@H]1C[C@@H](O)CN1; Cit = NC(=O)NCCC[C@H](N)C(=O)O
The reply must contain the numeric value and, after it, the unit.

A selection of reference data follows.
[[record]]
binder = "KCNTSTCTVARLADQITQFSDKDKANVSPPTEVGPNS[Hyp]-NH2 (disulfide 2-7 (inferred); ends not checked) [SEQ ID NO: 15]"
test_value = "7 pM"

[[record]]
binder = "GCRTGTCTVQRLAHQIYQFTDKDKDNVAPRSNIGPQGY [SEQ ID NO: 191]"
test_value = "98 pM"

[[record]]
binder = "KCNFATCTVQRLAHQIYQFTDKDKDNVAPRTEVGSNG[Hyp]-NH2 (disulfide 2-7 (inferred); ends not checked) [SEQ ID NO: 17]"
test_value = "8 pM"

[[record]]
binder = "{C20 diacid-γGlu}-KCNTATCTVQRLAEQIYQFTDKDKDNVAPPTNVGSNT[Hyp]-NH2 (disulfide 2-7 (inferred); not fully specified; ends not checked) [SEQ ID NO: 96]"
test_value = "16 pM"

[[record]]
binder = "KCNTATCTVQRLAHQIYQFADKDKDNVAPPTNVGSNG[Hyp]-NH2 (disulfide 2-7 (inferred); ends not checked) [SEQ ID NO: 23]"
test_value = "8 pM"

[[record]]
binder = "KCNTATCTVQWLAEQIYQFTDKDKDNVAPPYNEGSNG[Hyp]-NH2 (disulfide 2-7 (inferred); ends not checked) [SEQ ID NO: 321]"
test_value = "317 pM"


Kindly review the next binder as well.
Output measured hAMY3R EC50 (cAMP) for this item: RCQTSTCTVA[Cit]LAEQIAQYTDKDKDQVAPPTNVGSNS[Hyp]-NH2 (disulfide 2-7 (inferred); ends not checked) [SEQ ID NO: 256]
7 pM
